Data origin, for the record: ChEMBL document CHEMBL3865792

Each record here notes measured IC50 at 72 h.
assay.explanation: Cytotoxicity against hamster AG17-1 cells assessed as reduction in cell viability after 72 hrs by MTT assay
Type: toxicity, cell-based, Cricetulus griseus
assay.setup: Chinese hamster

compound | IC50 at 72 h
Cc1c(C)c2c(c(C)c1OC(=O)CCC(=O)O)CCC(C)(C(=O)NCC1CC(C)(C)N([O])C1(C)C)O2 (configuration not stated) | > 300 µM
Cc1c(C)c2c(c(C)c1O)CCC(C)(C(=O)O)O2 (configuration not stated) [TROLOX] | > 300 µM
CC1(C)CC(NC(=O)CCC(=O)O)CC(C)(C)N1[O] | > 300 µM
Cc1c(C)c2c(c(C)c1O)CCC(C)(C(=O)NC1CC(C)(C)N([O])C1(C)C)O2 (configuration not stated) | 194 µM
CC1(C)CC(NC(=O)CCC(=O)O)C(C)(C)N1[O] (configuration not stated) | > 300 µM
Cc1c(C)c2c(c(C)c1O)CCC(C)(C(=O)NCC1CC(C)(C)N([O])C1(C)C)O2 (configuration not stated) | 192 µM
Cc1c(C)c2c(c(C)c1OC(=O)CCC(=O)NCC1CC(C)(C)N([O])C1(C)C)CCC(C)(C(=O)NCC1CC(C)(C)N([O])C1(C)C)O2 (configuration not stated) | 50 µM
Cc1c(C)c2c(c(C)c1OC(=O)CCC(=O)NC1CC(C)(C)N([O])C(C)(C)C1)CC[C@@](C)(CCC[C@H](C)CCC[C@H](C)CCCC(C)C)O2 | > 300 µM
Cc1c(C)c2c(c(C)c1OC(=O)CCC(=O)NC1CC(C)(C)N([O])C1(C)C)CC[C@@](C)(CCC[C@H](C)CCC[C@H](C)CCCC(C)C)O2 (some centres not stated) | > 300 µM
CC1(C)CC(CNC(=O)CCC(=O)O)C(C)(C)N1[O] (configuration not stated) | > 300 µM
Cc1c(C)c2c(c(C)c1OC(=O)CCC(=O)O)CC[C@@](C)(CCC[C@H](C)CCC[C@H](C)CCCC(C)C)O2 [(+)-ALPHA-TOCOPHERYL SUCCINATE] | 50 µM
Cc1c(C)c2c(c(C)c1OC(=O)CCC(=O)O)CCC(C)(C(=O)NC1CC(C)(C)N([O])C(C)(C)C1)O2 (configuration not stated) | > 300 µM

###

assay.explanation: Cytotoxicity against mouse LMTK cells assessed as reduction in cell viability after 72 hrs by MTT assay
Type: toxicity
Recorded IC50 at 72 h values for a group of compounds are listed next.
parameter.measured: IC50 at 72 h

compound | parameter.measured | value.measured
Cc1c(C)c2c(c(C)c1OC(=O)CCC(=O)NCC1CC(C)(C)N([O])C1(C)C)CC[C@@](C)(CCC[C@H](C)CCC[C@H](C)CCCC(C)C)O2 (some centres undefined) | IC50 at 72 h | > 300 µM
Cc1c(C)c2c(c(C)c1OC(=O)CCC(=O)O)CCC(C)(C(=O)O)O2 (centres undefined) | IC50 at 72 h | > 300 µM
Cc1c(C)c2c(c(C)c1O)CCC(C)(C(=O)NC1CC(C)(C)N([O])C(C)(C)C1)O2 (centres undefined) | IC50 at 72 h | 252 µM
Cc1c(C)c2c(c(C)c1OC(=O)CCC(=O)O)CCC(C)(C(=O)NC1CC(C)(C)N([O])C(C)(C)C1)O2 (centres undefined) | IC50 at 72 h | > 300 µM
Cc1c(C)c2c(c(C)c1OC(=O)CCC(=O)NC1CC(C)(C)N([O])C1(C)C)CC[C@@](C)(CCC[C@H](C)CCC[C@H](C)CCCC(C)C)O2 (some centres undefined) | IC50 at 72 h | > 300 µM
CC1(C)CC(NC(=O)CCC(=O)O)CC(C)(C)N1[O] | IC50 at 72 h | > 300 µM
Cc1c(C)c2c(c(C)c1OC(=O)CCC(=O)NCC1CC(C)(C)N([O])C1(C)C)CCC(C)(C(=O)NCC1CC(C)(C)N([O])C1(C)C)O2 (centres undefined) | IC50 at 72 h | > 300 µM
Cc1c(C)c2c(c(C)c1O)CCC(C)(C(=O)NC1CC(C)(C)N([O])C1(C)C)O2 (centres undefined) | IC50 at 72 h | > 300 µM
Cc1c(C)c2c(c(C)c1OC(=O)CCC(=O)NC1CC(C)(C)N([O])C1(C)C)CCC(C)(C(=O)NC1CC(C)(C)N([O])C1(C)C)O2 (centres undefined) | IC50 at 72 h | > 300 µM
Cc1c(C)c2c(c(C)c1OC(=O)CCC(=O)O)CC[C@@](C)(CCC[C@H](C)CCC[C@H](C)CCCC(C)C)O2 [(+)-ALPHA-TOCOPHERYL SUCCINATE] | IC50 at 72 h | 73 µM
Cc1c(C)c2c(c(C)c1OC(=O)CCC(=O)O)CCC(C)(C(=O)NC1CC(C)(C)N([O])C1(C)C)O2 (centres undefined) | IC50 at 72 h | > 300 µM
Cc1c(C)c2c(c(C)c1O)CCC(C)(C(=O)NCC1CC(C)(C)N([O])C1(C)C)O2 (centres undefined) | IC50 at 72 h | 300 µM
Cc1c(C)c2c(c(C)c1OC(=O)CCC(=O)NC1CC(C)(C)N([O])C(C)(C)C1)CCC(C)(C(=O)NC1CC(C)(C)N([O])C(C)(C)C1)O2 (centres undefined) | IC50 at 72 h | 133 µM
Cc1c(C)c2c(c(C)c1O)CC[C@@](C)(CCC[C@H](C)CCC[C@H](C)CCCC(C)C)O2 | IC50 at 72 h | > 300 µM
CC1(C)CC(CNC(=O)CCC(=O)O)C(C)(C)N1[O] (centres undefined) | IC50 at 72 h | > 300 µM
Cc1c(C)c2c(c(C)c1OC(=O)CCC(=O)O)CCC(C)(C(=O)NCC1CC(C)(C)N([O])C1(C)C)O2 (centres undefined) | IC50 at 72 h | > 300 µM
Cc1c(C)c2c(c(C)c1OC(=O)CCC(=O)NC1CC(C)(C)N([O])C(C)(C)C1)CC[C@@](C)(CCC[C@H](C)CCC[C@H](C)CCCC(C)C)O2 | IC50 at 72 h | > 300 µM
CC1(C)CC(NC(=O)CCC(=O)O)C(C)(C)N1[O] (centres undefined) | IC50 at 72 h | > 300 µM
Cc1c(C)c2c(c(C)c1O)CCC(C)(C(=O)O)O2 (centres undefined) | IC50 at 72 h | > 300 µM

###

assay.explanation: Genotoxicity in Escherichia coli PQ37 expressing lacZ gene assessed as ratio of inducible beta-galactosidase activity to alkaline phosphatase activity at 1 mM after 2 hrs by SOS-chromotest relative to control
Format: toxicity
assay.setup: Escherichia coli PQ37 cells expressing lacZ gene, read-out: FC

compound | fold induction at 2 h, 1000 µM
CC(C)(C)OO [TERT-BUTYL HYDROPEROXIDE] | 11.6

###

assay.explanation: Cytotoxicity against mouse LMTK cells assessed as reduction in cell viability at 300 uM after 72 hrs by MTT assay
Format: toxicity
assay.setup: read-out: INH

compound | cytotoxicity at 72 h, 300 µM (%)
Cc1c(C)c2c(c(C)c1OC(=O)CCC(=O)NCC1CC(C)(C)N([O])C1(C)C)CC[C@@](C)(CCC[C@H](C)CCC[C@H](C)CCCC(C)C)O2 (some centres undefined) | 7
Cc1c(C)c2c(c(C)c1OC(=O)CCC(=O)NCC1CC(C)(C)N([O])C1(C)C)CCC(C)(C(=O)NCC1CC(C)(C)N([O])C1(C)C)O2 (centres undefined) | 10
Cc1c(C)c2c(c(C)c1O)CCC(C)(C(=O)NC1CC(C)(C)N([O])C1(C)C)O2 (centres undefined) | 32
Cc1c(C)c2c(c(C)c1O)CCC(C)(C(=O)NCC1CC(C)(C)N([O])C1(C)C)O2 (centres undefined) | 25
